Recorded measurements of pIC50, one per entry
Target chain: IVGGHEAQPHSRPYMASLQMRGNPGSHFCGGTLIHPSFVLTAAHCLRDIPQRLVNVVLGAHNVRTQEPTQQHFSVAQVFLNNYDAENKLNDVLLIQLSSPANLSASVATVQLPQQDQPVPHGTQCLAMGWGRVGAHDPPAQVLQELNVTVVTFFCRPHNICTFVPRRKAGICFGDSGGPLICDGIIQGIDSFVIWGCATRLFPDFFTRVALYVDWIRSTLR
pIC50: −log10 of the molar value. Where a SMILES comes first, the peptide text is derived from it. [ ]: non-standard residue; d: D form. Gly(octyl) = CCCCCCCC[C@H](N)C(=O)O; Dab = NCC[C@H](N)C(=O)O
READOUT_NAME: pIC50

- COMPOUND: "CCCCCCCC[C@@H]1NC(=O)[C@H](C(C)C)NC(=O)[C@@H](Cc2ccc(O)cc2)NC(=O)[C@H]([C@@H](C)O)NC(=O)[C@H](CCCCN)NC(=O)[C@H](CCC(N)=O)NC(=O)[C@@H]2CCCN2C(=O)[C@@H]2CCCN2C(=O)[C@H]([C@@H](C)CC)NC(=O)[C@H](CO)NC(=O)[C@H](C)NC(=O)[C@H]([C@@H](C)O)NC(=O)[C@H](CCC(=O)O)NC1=O [Example 23] (cyclo([Gly(octyl)]ETASIPPQKT[dY]V))"
  READOUT_NAME: "pIC50"
  OBSERVED: 4.99
- COMPOUND: "CC[C@H](C)[C@@H]1NC(=O)[C@H](CO)NC(=O)[C@H](C)NC(=O)[C@H]([C@@H](C)O)NC(=O)[C@H](CCC(=O)O)NC(=O)[C@H](CCNC(=O)[C@@H](N)Cc2ccccc2)NC(=O)[C@@H]2CCCN2C(=O)[C@H]2CCCN2C(=O)[C@H](Cc2ccc(O)cc2)NC(=O)[C@H](CCCCN)NC(=O)[C@H](CCC(N)=O)NC(=O)[C@@H]2CCCN2C(=O)[C@@H]2CCCN2C1=O [Example 9] (cyclo([Dab](Phe)ETASIPPQKY[dP]P))"
  READOUT_NAME: "pIC50"
  OBSERVED: 4.91

---

Below, each of the compounds is paired with its reported IC50 value.
Molecular target: UniProt P00772
Sequence (P00772 27-266): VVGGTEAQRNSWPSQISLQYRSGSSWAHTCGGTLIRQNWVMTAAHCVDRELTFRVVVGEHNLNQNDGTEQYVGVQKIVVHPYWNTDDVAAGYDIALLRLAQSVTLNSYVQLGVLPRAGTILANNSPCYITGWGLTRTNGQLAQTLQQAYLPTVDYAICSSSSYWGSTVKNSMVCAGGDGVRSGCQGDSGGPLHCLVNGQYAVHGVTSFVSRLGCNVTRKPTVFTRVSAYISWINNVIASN
Where a SMILES comes first, the peptide text is derived from it. [ ]: non-standard residue; d: D form. The star is where a group is joined. Gly(octyl) = CCCCCCCC[C@H](N)C(=O)O; Octanoyl = CCCCCCCC(=O)*; Dab = NCC[C@H](N)C(=O)O
READOUT_NAME: IC50 (µM)

- COMPOUND: "CCCCCCCC(=O)NCC[C@@H]1NC(=O)[C@@H]2CCCN2C(=O)[C@H]2CCCN2C(=O)[C@H]([C@@H](C)O)NC(=O)[C@H](CCCCN)NC(=O)[C@H](CCC(N)=O)NC(=O)[C@@H]2CCCN2C(=O)[C@@H]2CCCN2C(=O)[C@H]([C@@H](C)CC)NC(=O)[C@H](CO)NC(=O)[C@H](C)NC(=O)[C@H]([C@@H](C)O)NC(=O)[C@H](CCC(=O)O)NC1=O [Example 15] (cyclo([Dab](Octanoyl)ETASIPPQKT[dP]P))"
  READOUT_NAME: "IC50"
  OBSERVED: 92.8
- COMPOUND: "CCCCCCCC[C@@H]1NC(=O)[C@H](C(C)C)NC(=O)[C@@H](Cc2ccc(O)cc2)NC(=O)[C@H]([C@@H](C)O)NC(=O)[C@H](CCCCN)NC(=O)[C@H](CCC(N)=O)NC(=O)[C@@H]2CCCN2C(=O)[C@@H]2CCCN2C(=O)[C@H]([C@@H](C)CC)NC(=O)[C@H](CO)NC(=O)[C@H](C)NC(=O)[C@H]([C@@H](C)O)NC(=O)[C@H](CCC(=O)O)NC1=O [Example 23] (cyclo([Gly(octyl)]ETASIPPQKT[dY]V))"
  READOUT_NAME: "IC50"
  OBSERVED: 10.3
